Test system: adult mongrel dogs
Experiment: renal vasodilating activity in anesthetized dogs
Assay type: in vivo, dog (adult mongrel)
Conditions: Canis lupus familiaris; renal vasodilator; dose 1.2 mg/kg intravenous; relative to controls; read-out: RVR (renal vascular resistance)
Doc: threshold -20% (exclusive). Items with change in vivo at 1.2 mg/kg beneath it return satisfied; others return not satisfied.

These solved cases illustrate the format of a correct answer.
smiles_structure=CCc1c(O)nc(C)c2cc(OC)c(OC)cc12 discrete_label=satisfied
smiles_structure=COc1cc(OC)c2c(C)nc(O)cc2c1 discrete_label="not satisfied"
smiles_structure=COc1cc2c(C)nc(O)c(C(=O)NN)c2cc1OC discrete_label="not satisfied"
smiles_structure=CCCCOc1cc2c(C)nc(O)cc2cc1OC discrete_label="not satisfied"
smiles_structure=COc1ccc2c(C)nc(O)cc2c1 discrete_label="not satisfied"
smiles_structure=Cc1nc(O)c(Cl)c2cc3c(cc12)OCO3 discrete_label=satisfied

Please look at the following molecule next.
# TODO verify change in vivo at 1.2 mg/kg < -20% strictly for this molecule: CCOc1cc2cnc(O)cc2cc1OC
not satisfied

---

Tested on: adult mongrel dogs
Assay: renal vasodilating activity in anesthetized dogs
Assay type: in vivo, dog (adult mongrel)
Settings: Canis lupus familiaris; renal vasodilator; dose 1.2 mg/kg intravenous; relative to controls; read-out: HR (heart rate)
property_measured: change in vivo at 1.2 mg/kg (%)
Write the answer as a number in %, unit excluded.

Specify reported change in vivo at 1.2 mg/kg for the compound shown: COc1ccc2c(C)nc(O)cc2c1
4

---

change in vivo at 1.875 mg/kg values for the molecules below.
System: adult mongrel dogs
Experiment: acute in vivo cardiotonic activity in anesthetized dogs
Parameters: species or system dog (adult mongrel)
Details: Canis lupus familiaris; cardiotonic; dose 1.875 mg/kg intravenous; relative to controls; read-out: HR (heart rate)
Note: unit % is implicit; provide only the numeric part.

molecule="COC(=O)C(C)Cc1c(O)nc(C)c2cc(OC)c(OC)cc12 (stereo not drawn) [O]" measured_result=21
molecule="COc1cc2c(C)nc(O)c(CC(C)C)c2cc1OC [AJ]" measured_result=10
molecule="COc1cc2c(C)nc(O)c(CCC(=O)OC(C)C)c2cc1OC [Compound R]" measured_result=3
molecule="COC(=O)CCc1c(O)nc(C(C)C)c2cc(OC)c(OC)cc12 [P]" measured_result=7
molecule="Cc1nc(O)c(Cl)c2cc3c(cc12)OCO3 [AG]" measured_result=28

Indicate its recorded change in vivo at 1.875 mg/kg; the molecule in question is COc1cc2c(CCl)nc(O)c(Cl)c2cc1OC [AD]
21

---

Listed next: entries and their corresponding change in vivo at 0.375 mg/kg.
Tested on: adult mongrel dogs
Assay: acute in vivo cardiotonic activity in anesthetized dogs
Design: species or system dog (adult mongrel)
Settings: Canis lupus familiaris; cardiotonic; dose 0.375 mg/kg intravenous; relative to controls; read-out: MABP (mean arterial blood pressure)
Unit % implied. Number only.

Below: 3 molecules and their reported change in vivo at 0.375 mg/kg.
smiles_structure=COc1cc(OC)c2c(C)nc(O)cc2c1 target_or_system="adult mongrel dogs" property_measured="change in vivo at 0.375 mg/kg" measured_result=-3
smiles_structure=CCCc1c(O)nc(C)c2cc(OC)c(OC)cc12 target_or_system="adult mongrel dogs" property_measured="change in vivo at 0.375 mg/kg" measured_result=-16
smiles_structure=CCOc1cc2c(C)nc(O)cc2cc1OC target_or_system="adult mongrel dogs" property_measured="change in vivo at 0.375 mg/kg" measured_result=-5

Tell me change in vivo at 0.375 mg/kg reported for CCCCOc1cc2c(C)nc(O)cc2cc1OC
-10

---

Test system: adult mongrel dogs
Experiment: renal vasodilating activity in anesthetized dogs
Assay type: in vivo, dog (adult mongrel)
Conditions: Canis lupus familiaris; renal vasodilator; dose 13.9 mg/kg intravenous; relative to controls; read-out: RBF (renal blood flow)
Protocol: Goldberg et al, J. Pharmacol. Exp. Ther., 163, 188 (1968), performed an investigation of the structural requirements for dopamine-like renal vasodilation of phenethylamines and apomorphine. […] Adult mongrel dogs were anesthetized and surgically prepared for electromagnetic measurement of renal artery blood flow. […] Heart rate was monitored with a cardiotachometer. Renal vascular resistance was calculated as the ratio of mean arterial blood pressure/renal artery blood flow. […]
Counter-ions that a name gives are not always drawn.
property_measured: change in vivo at 13.9 mg/kg
Report as: number unit

molecule=CCCc1c(O)nc(C)c2cc(OC)c(OC)cc12 measured_result=10%
molecule=Cc1nc(O)cc2cc(O)c(O)cc12 measured_result=30%
molecule=COc1cc2cc(O)nc(C)c2c(OC)c1OC measured_result=41%
molecule=CCc1nc(O)c(CCC(=O)OC)c2cc(OC)c(OC)cc12 measured_result=28%
molecule=Cc1nc(O)cc2ccc(O)c(O)c12 measured_result=35%
molecule=COC(=O)CCc1c(O)nc(C)c2cc(OC)c(OC)cc12 measured_result=15%
molecule=COC(=O)CCc1c(O)nc(C)c2c(OC)c(OC)c(OC)cc12 measured_result=18%

# input for lookup
Give the reported value of change in vivo at 13.9 mg/kg for this record: Cc1nc(O)c(CCC(=O)O)c2cc(O)c(O)cc12 [Compound G, Hydrobromide]
11%

---

Test system: adult mongrel dogs
Test: renal vasodilating activity in anesthetized dogs
Format: in vivo, dog (adult mongrel)
Conditions: Canis lupus familiaris; renal vasodilator; dose 13.9 mg/kg intravenous; relative to controls; read-out: RVR (renal vascular resistance)
Where a name gives a salt, the structure may show the parent alone.
change in vivo at up to 13.9 mg/kg values by entry
The response must be a number in % with no trailing unit.

Reference set, count: 3
compound=COc1cc2c(C)nc(O)c(CCC(=O)O)c2cc1OC unit_text=% measured_result=-13
compound=COc1cc2cc(O)nc(C)c2c(OC)c1OC unit_text=% measured_result=-38
compound=Cc1nc(O)cc2cc(O)c(O)cc12 unit_text=% measured_result=-30

Name the recorded change in vivo at up to 13.9 mg/kg of the item Cc1nc(O)c(CCC(=O)O)c2cc(O)c(O)cc12 [Compound G, Hydrobromide] in your answer.
-14

Kindly indicate its recorded change in vivo at up to 13.9 mg/kg. Item: COC(=O)CCc1c(O)nc(C)c2cc(OC)c(OC)cc12
-38

---

Measured change in vivo at 0.875 mg/kg values are reported for all entries that follow.
System: adult mongrel dogs
Assay: acute in vivo cardiotonic activity in anesthetized dogs
Parameters: species or system dog (adult mongrel)
Details: Canis lupus familiaris; cardiotonic; dose 0.875 mg/kg intravenous; relative to controls; read-out: MABP (mean arterial blood pressure)
Quick reminder: number only, in %, skip the unit.

compound=COC(=O)Cc1c(O)nc(C)c2cc(OC)c(OC)cc12 unit_text=% measured_result=-1
compound="Br.COc1cc2c(C)nc(O)c(Br)c2cc1OC.O [Compound AC, Hydrobromide Monohydrate]" unit_text=% measured_result=-40
compound=COc1cc2cc(O)nc(C)c2c(OC)c1OC unit_text=% measured_result=-2
compound=COC(=O)CCc1c(O)nc(C)c2c(OC)c(OC)c(OC)cc12 unit_text=% measured_result=-4

Let us move to another entry and its change in vivo at 0.875 mg/kg.
Write down measured change in vivo at 0.875 mg/kg (adult mongrel dogs) for this compound. COC(=O)CCc1c(O)ncc2cc(OC)c(OC)cc12
-4

---

Tested on: adult mongrel dogs
Test: renal vasodilating activity in anesthetized dogs
Format: in vivo, dog (adult mongrel)
Settings: Canis lupus familiaris; renal vasodilator; dose 1.2 mg/kg intravenous; relative to controls; read-out: HR (heart rate)
property_measured: change in vivo at 1.2 mg/kg (%)
Write down the numeric answer in % and omit the unit.

Recorded results for 4 compounds are shown here.
smiles_structure=CCCCOc1cc2c(C)nc(O)cc2cc1OC property_measured="change in vivo at 1.2 mg/kg" measured_result=9
smiles_structure=CCOc1cc2cnc(O)cc2cc1OC property_measured="change in vivo at 1.2 mg/kg" measured_result=16
smiles_structure=COc1cc2c(C)nc(O)c(C(=O)NN)c2cc1OC property_measured="change in vivo at 1.2 mg/kg" measured_result=1
smiles_structure=COc1cc(OC)c2c(C)nc(O)cc2c1 property_measured="change in vivo at 1.2 mg/kg" measured_result=25

Now examine the next entry.
Look up change in vivo at 1.2 mg/kg of Cc1nc(O)c(Cl)c2cc3c(cc12)OCO3 and report it.
27
